Target: BTK (Homo sapiens (Human), UniProt Q06187)
Sequence (Q06187 whole entry): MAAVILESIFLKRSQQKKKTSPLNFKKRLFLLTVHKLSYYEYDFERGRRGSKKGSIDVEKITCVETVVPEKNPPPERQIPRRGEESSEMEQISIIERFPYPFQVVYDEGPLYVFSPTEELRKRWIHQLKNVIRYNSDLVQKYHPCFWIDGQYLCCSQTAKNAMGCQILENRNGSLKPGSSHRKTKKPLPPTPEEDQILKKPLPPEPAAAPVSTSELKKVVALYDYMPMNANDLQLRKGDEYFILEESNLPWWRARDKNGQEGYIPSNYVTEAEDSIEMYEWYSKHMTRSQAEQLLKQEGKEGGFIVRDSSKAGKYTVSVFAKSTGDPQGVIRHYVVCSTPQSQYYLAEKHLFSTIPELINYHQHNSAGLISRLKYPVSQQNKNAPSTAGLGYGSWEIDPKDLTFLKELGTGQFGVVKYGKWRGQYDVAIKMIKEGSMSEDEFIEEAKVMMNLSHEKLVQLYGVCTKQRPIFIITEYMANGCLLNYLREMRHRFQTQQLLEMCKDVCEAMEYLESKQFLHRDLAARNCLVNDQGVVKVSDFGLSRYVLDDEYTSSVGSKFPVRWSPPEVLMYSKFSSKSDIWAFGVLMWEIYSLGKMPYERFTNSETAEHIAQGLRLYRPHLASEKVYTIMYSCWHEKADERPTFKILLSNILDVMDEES
Assay: In Vitro BTK Kinase Assay: BTK-POLYGAT-LS ASSAY
Format: biochemical
Details: ATP 10 μM, polyGAT 100 nM, BTK 0.25 nM, 30 minutes
Experimental: The purpose of the BTK in vitro assay is to determine compound potency against BTK through the measurement of IC50. […] The BTK kinase reaction was done in a black 96 well plate (costar 3694). […] Time resolved fluorescence (TRF) on Molecular Devices M5 (332 nm excitation; 488 nm emission; 518 nm fluorescein emission) is measured.
# IC50 per record follows

INSERT INTO measurements (smiles_string, measured_endpoint, reading) VALUES
  ('Cc1cc(-c2ccnc(NC(=O)C3CC3)c2)ccc1[C@@H](C)NC(=O)c1nc(C(C)(C)C)no1', 'IC50', '≤ 1 nM'),
  ('Cc1cc(-c2ccnc(NC(=O)C3(F)CC3)c2)ccc1CNC(=O)c1noc(C(C)(C)C)n1', 'IC50', '1 to 10 nM'),
  ('Cc1cc(-c2ccnc(NC(=O)[C@@H]3C[C@H]3C)c2)ccc1CNC(=O)c1noc(C(C)(C)C)n1', 'IC50', '≤ 1 nM');

Now look at this entry.
Q: Give reported IC50 for CC(C)(C)c1nc(C(=O)N[C@@H]2CCCOc3cc(-c4ccnc(NC(=O)C5CC5)c4)ccc32)no1 (BTK (Homo sapiens (Human), UniProt Q06187))
A: ≤ 1 nM

----------
# pIC50 per record follows
Biological target: BTK (Homo sapiens (Human))
Assay: In Vitro PD Assay in Human Whole Blood (pBTK assay)
Type: cell-based
Settings: 37° C. for 30 min, 50% inhibition of ECL signal
pIC50: −log10 of the molar value.

INSERT INTO assay_data (molecule, reading) VALUES
  ('Cc1c(-c2ccnc(NC(=O)C3CC3)c2)ccc(CNC(=O)c2nc(C(C)(C)C)no2)c1F [Compound 100]', '5.00 to 6.30'),
  ('C[C@@H](NC(=O)c1nc(C(C)(C)C)no1)c1ccc(-c2ccnc(NC(=O)C3CC3)c2)cc1C(F)(F)F [Compound 79]', '6.30 to 7.00');

Q: Give reported pIC50 for Cc1cc(CNC(=O)c2noc(C(C)(C)C)n2)c(F)cc1-c1ccnc(NC(=O)C2CC2)c1 [Compound 102] (BTK (Homo sapiens (Human)))
A: 5.00 to 6.30

Q: Give reported pIC50 for Cc1cc(-c2ccnc(NC(=O)C3CC3)c2)ccc1CNC(=O)c1noc(C(C)(C)CO)n1 [Compound 35] (BTK (Homo sapiens (Human)))
A: 5.00 to 6.30

Q: Give reported pIC50 for CC(C)(C)c1noc(C(=O)N[C@@H]2CCCCc3cc(-c4ccnc(NC(=O)[C@@H]5CC56CCC6)c4)ccc32)n1 [Compound 42] (BTK (Homo sapiens (Human)))
A: 5.00 to 6.30

Q: Give reported pIC50 for CC(C)(C)c1nc(C(=O)NCc2ccc(-c3ccnc(NC(=O)C4CC4)c3)cc2C(C)(C)C)no1 [Compound 72] (BTK (Homo sapiens (Human)))
A: < 5.00

Q: Give reported pIC50 for CC(C)(C)c1nc(C(=O)N[C@@H]2CCCCc3cc(-c4ccnc(NC(=O)C5CC5)c4)ccc32)co1 [Compound 68] (BTK (Homo sapiens (Human)))
A: 5.00 to 6.30
